All figures here come from ChEMBL document CHEMBL3638462.

# TGT: UniProt:Q9Y233
# Sequence (Q9Y233 whole entry): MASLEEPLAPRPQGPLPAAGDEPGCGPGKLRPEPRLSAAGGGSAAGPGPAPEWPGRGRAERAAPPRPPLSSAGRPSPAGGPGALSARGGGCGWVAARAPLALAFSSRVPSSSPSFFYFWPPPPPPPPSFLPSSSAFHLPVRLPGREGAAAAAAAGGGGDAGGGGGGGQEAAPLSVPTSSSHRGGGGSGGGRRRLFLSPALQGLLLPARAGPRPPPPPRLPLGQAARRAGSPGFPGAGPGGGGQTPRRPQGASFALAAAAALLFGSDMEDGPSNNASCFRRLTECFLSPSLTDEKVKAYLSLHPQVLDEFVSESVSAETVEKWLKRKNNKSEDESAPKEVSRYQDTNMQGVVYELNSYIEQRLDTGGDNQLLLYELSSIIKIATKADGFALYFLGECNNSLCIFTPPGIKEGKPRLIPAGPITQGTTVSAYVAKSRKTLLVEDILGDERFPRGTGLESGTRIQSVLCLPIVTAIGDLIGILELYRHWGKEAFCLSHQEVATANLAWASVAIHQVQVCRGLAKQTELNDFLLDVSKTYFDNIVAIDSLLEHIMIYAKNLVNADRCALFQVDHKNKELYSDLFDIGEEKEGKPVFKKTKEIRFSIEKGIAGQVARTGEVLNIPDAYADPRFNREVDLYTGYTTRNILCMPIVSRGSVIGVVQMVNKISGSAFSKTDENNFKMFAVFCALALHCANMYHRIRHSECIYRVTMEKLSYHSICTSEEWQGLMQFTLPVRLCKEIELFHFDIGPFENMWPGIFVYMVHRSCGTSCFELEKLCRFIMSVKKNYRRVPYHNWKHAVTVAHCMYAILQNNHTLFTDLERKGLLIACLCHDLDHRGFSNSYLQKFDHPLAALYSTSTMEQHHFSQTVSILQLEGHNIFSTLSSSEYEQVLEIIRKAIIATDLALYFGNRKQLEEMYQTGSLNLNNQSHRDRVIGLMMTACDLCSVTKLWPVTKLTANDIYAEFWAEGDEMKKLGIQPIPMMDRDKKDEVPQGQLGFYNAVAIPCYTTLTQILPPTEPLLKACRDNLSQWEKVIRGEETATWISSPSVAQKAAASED
Each record's class is read off its IC50 using these ranges: lowest (below 0.9 nM), middle (0.9 nM to below 9 nM), highest (9 nM or more)

Example entries begin here.
• Cc1cc(-c2cccnc2Oc2ccc(C(=O)c3nc4ccccc4n3C)cc2)ccn1 = middle
• O=C(c1ccc(Oc2ncccc2-c2cccnc2F)cc1)c1nc2ccccc2[nH]1 = lowest
• O=C(c1ccc(Oc2ncccc2C(=O)NC2Cc3ccccc3C2)cc1)c1nc2ccccc2[nH]1 = highest
• O=C(c1ccc(Oc2ncccc2[C@@H]2CC[C@@H](CO)C2)cc1)c1nc2ccccc2[nH]1 = lowest
• COc1cccnc1-c1cccnc1Oc1ccc(Nc2nc3ccccc3s2)cc1 = highest

Lab note: next molecule to report on.
Query :: Exam item: assign O=C(c1ccc(Oc2ncccc2[C@H]2CC[C@@H](O)CC2)cc1)c1nc2ccccc2[nH]1 to the correct category.
Result :: lowest
